tested on: UACC-257 melanoma; test: NCI tumour cell line growth inhibition, 48 h; in the data active means GI50 below about 0.43 µM; inactive means the rest
Where a SMILES comes first, the peptide text is derived from it. Bridges are numbered along the chain shown (N, C = ends). [ ]: non-standard residue; d: D form. aThr = C[C@H](O)[C@H](N)C(=O)O
Tick one outcome: True = active, False = inactive

These solved cases illustrate the format of a correct answer.
[
  {
    "compound": "OCCCCC#Cc1ccccc1C#Cc1cccc(C(F)(F)F)c1",
    "test system": "UACC-257 melanoma",
    "category label": "False"
  },
  {
    "compound": "COCCN(CCOC)c1nc(-c2ccccc2)nc2ccccc12",
    "test system": "UACC-257 melanoma",
    "category label": "False"
  },
  {
    "compound": "C#Cc1ccc(-n2c(/C=C/c3ccc(O)cc3)nc3ncccc3c2=O)cc1",
    "test system": "UACC-257 melanoma",
    "category label": "False"
  },
  {
    "compound": "C=CCN(CC=C)C(=O)c1cc(C)nc2c1c(=O)n(-c1ccccc1)c(=O)n2CCCN1CCN(c2ccccc2OC)CC1",
    "test system": "UACC-257 melanoma",
    "category label": "False"
  },
  {
    "compound": "O=C(O)CN(CCN(CC(=O)O)CC(=O)O)CC(=O)O.[Mn+2]",
    "test system": "UACC-257 melanoma",
    "category label": "False"
  }
]

Test call for this compound, please: COc1ccc(Nc2cnc3cc(N)cc(N)c3n2)cc1
False

Entry COc1ccccc1CNCCN1C(=O)c2ccc3c4c(ccc(c24)C1=O)C(=O)N(CCNCc1ccccc1OC)C3=O please
True

Entry CC(C)C[C@@H]1NC(=O)[C@@H]2CCCN2C(=O)[C@@H]2CCCN2C(=O)[C@H](CC(C)C)NC(=O)[C@H](CO)NC(=O)[C@H](CCCCN)NC(=O)[C@H]([C@H](C)O)NC(=O)[C@@H]2CSSC[C@@H](NC1=O)C(=O)N[C@@H](Cc1ccccc1)C(=O)N1CCC[C@H]1C(=O)N[C@@H](CC(=O)O)C(=O)NCC(=O)N[C@@H](CCCN=C(N)N)C(=O)N2 (cyclo(C[aThr]KSLPPL[dC]FPDGR); disulfide 1-9) please
False

====

test system: OVCAR-5 ovarian; test: NCI tumour cell line growth inhibition, 48 h
outcome measure: GI50

// worked examples, GI50 included
[
  {
    "compound": "CC(=O)Oc1ccc(C2=Cc3ccc(OC(C)=O)cc3OC2C)cc1 (stereo not given)",
    "outcome measure": "GI50",
    "observed measurement": "21.1 µM"
  },
  {
    "compound": "O=C(Nc1ccc(OC(F)(F)Cl)cc1)c1cnc(N2CC[C@@H](O)C2)c(-c2ccn[nH]2)c1",
    "outcome measure": "GI50",
    "observed measurement": "12.9 µM"
  },
  {
    "compound": "Cc1ccc(NC(=O)c2cc(S(=O)(=O)Nc3nnc(-c4ccccc4)c(-c4ccccc4)n3)c(SCc3ccccc3)cc2Cl)cc1",
    "outcome measure": "GI50",
    "observed measurement": "19.4 µM"
  }
]

Hey, can you go through the list below and give me GI50 for every item?
1. O=C(O)CN(CCN(CC(=O)O)CC(=O)O)CC(=O)O.[Mn+2]
2. COc1cc(-c2nccc3[nH]c(-c4ccc5cc[nH]c5c4)nc23)cc(OC)c1OC
3. COCCOC1=C(Cl)C(=O)c2ccccc2C1=O
4. S=C1SCN(Cc2ccccc2)CN1Cc1ccco1
5. CC(=O)Oc1c(C(=O)[O-])cc(C(C)C)cc1C(C)C.CC(=O)Oc1c(C(=O)[O-])cc(C(C)C)cc1C(C)C.CC(=O)Oc1c(C(=O)[O-])cc(C(C)C)cc1C(C)C.CC(=O)Oc1c(C(=O)[O-])cc(C(C)C)cc1C(C)C.[Cu+2].[Cu+2]
6. C(=Nc1nc(SCc2ccccc2)nc2[nH]ncc12)c1cccs1
7. Cc1cc(Cl)nc(N(CCNc2ccnc3cc(Cl)ccc23)Cc2ccco2)n1

1: > 100 µM; 2: 1.3 µM; 3: 3.22 µM; 4: 9.73 µM; 5: 57.2 µM; 6: > 100 µM; 7: 2.72 µM

====

system: NCI-H226 lung; assay: NCI tumour cell line growth inhibition, 48 h
outcome measure: TGI

[
  {
    "compound": "Cc1[nH]n(-c2nc3c(c(=O)[nH]2)CCCC3)c(=O)c1CCO",
    "test system": "NCI-H226 lung",
    "outcome measure": "TGI",
    "observed measurement": "> 100 µM"
  },
  {
    "compound": "CCOC(=O)c1c(NC(=O)c2ccccc2)c(C#N)c2n1CCCCC2",
    "test system": "NCI-H226 lung",
    "outcome measure": "TGI",
    "observed measurement": "> 100 µM"
  }
]

Fill in the recorded TGI for this compound, with NCI-H226 lung as test system: CCCCCC(=O)O[C@]1(C(C)=O)CCC2C3CCC4=CC(=O)CC[C@]4(C)C3CC[C@@]21C (stereo partly drawn)
4.78 µM

====

I'd appreciate it if you could supply TGI values for the items below.
system: OVCAR-4 ovarian; test: NCI tumour cell line growth inhibition, 48 h

[
  {
    "compound": "CCCCCCCCCCCC[C@@H](O)[C@H]1CC[C@H]([C@H](O)CC[C@H](O)[C@@H]2CC[C@@H](CCCCCCCC3=C[C@H](C)OC3=O)O2)O1",
    "observed measurement": "> 50 µM"
  },
  {
    "compound": "Cn1c(=O)c2nc3sc4c(n3c2n(C)c1=O)C(=O)c1ccccc1C4=O",
    "observed measurement": "> 81.4 µM"
  },
  {
    "compound": "NCCOc1cccc(C2(N3CCCCC3)CCCCC2)c1",
    "observed measurement": "> 100 µM"
  },
  {
    "compound": "CCOC(=O)/C(=C\\c1cccc(C)c1)C(C)=O",
    "observed measurement": "59.6 µM"
  },
  {
    "compound": "O=[N+]([O-])c1ccc(/C=N/Nc2nc3ccccc3[nH]2)o1",
    "observed measurement": "21.6 µM"
  }
]

Hey, can you go through the list below and give me TGI for every item?
1. OC(c1ccccc1Br)(c1ccccc1Br)C(F)(F)F
2. CCc1ccc(Nc2cc(C)c3ccc(O)cc3n2)cc1
3. CCCCS(=O)c1sc2nc(-c3cccs3)cc(-c3ccccc3)c2c1N (centres undefined)

1. > 100 µM
2. 30.9 µM
3. > 100 µM

Hey, can you go through the list below and give me TGI for every item?
1. O=c1cc(Nc2cccc(O)c2)[nH]c(=O)[nH]1
2. CSc1nncc(-c2cc3c(c(SC)n2)CCCC3)n1

["> 100 µM", "> 100 µM"]

Hey, can you go through the list below and give me TGI for every item?
1. CC(=O)Oc1c(C(=O)[O-])cc(C(C)C)cc1C(C)C.CC(=O)Oc1c(C(=O)[O-])cc(C(C)C)cc1C(C)C.CC(=O)Oc1c(C(=O)[O-])cc(C(C)C)cc1C(C)C.CC(=O)Oc1c(C(=O)[O-])cc(C(C)C)cc1C(C)C.[Cu+2].[Cu+2]
2. CCCCCCCCOCC(COC(=O)CCCCCCC)OC(=O)CCCCCCC (centres undefined)
3. CC[C@H](C)[C@H](NC(=O)[C@H]1CCCCN1C)C(=O)N(C)[C@H](C[C@@H](OC(C)=O)c1nc(C(=O)NC23CC(C(=O)OC)(C2)C3)cs1)C(C)C
4. S=C1Cc2c(-c3ccccc3)cc(-c3cccc(Cl)c3)nc2-c2ccccc2N1
5. Nc1nc(=S)c2ncn(C3OC(COP(=O)(O)O)C(O)C3O)c2[nH]1 (centres undefined)
6. COC(CN(C)C(=S)Nc1cccc2ccccc12)OC
7. COc1ccc(OC)c2sc(N3C(=O)/C(=C/c4cccc(Oc5ccccc5)c4)N=C3c3ccccc3)nc12
8. c1cc(-c2ccc(-c3ccsc3)s2)cs1

1. 97.1 µM
2. > 100 µM
3. > 32.5 µM
4. 1.21 µM
5. > 100 µM
6. > 10 µM
7. > 100 µM
8. 57.5 µM

State the recorded TGI for this entry: O=C(Nc1ccc(OC(F)(F)Cl)cc1)c1cnc(N2CC[C@@H](O)C2)c(-c2ccn[nH]2)c1
43.5 µM

====

test system: OVCAR-8 ovarian; test: NCI tumour cell line growth inhibition, 48 h
outcome measure: TGI

// worked examples, TGI included
[
  {
    "compound": "COc1cc2nc(Cl)nc(NS(=O)(=O)c3cc4ccccc4s3)c2cc1OC",
    "outcome measure": "TGI",
    "observed measurement": "> 100 µM"
  },
  {
    "compound": "N#Cc1ccc(Sc2nc3ccccc3[nH]2)cc1",
    "outcome measure": "TGI",
    "observed measurement": "> 100 µM"
  },
  {
    "compound": "Nc1nc(=S)c2c(ncn2CCO)[nH]1",
    "outcome measure": "TGI",
    "observed measurement": "> 100 µM"
  }
]

Hey, can you go through the list below and give me TGI for every item?
1. COc1ccc(-c2[nH]c3ccc(OC)cc3c2C=C(C#N)C#N)cc1
2. Cc1ccc(OCC2OC(n3cnc4c(Cl)nc(Nc5cc(Cl)cc(Cl)c5)nc43)CC2Oc2ccc(C)cc2)cc1 (stereo not drawn)
3. O=C1CC(c2cccc(Cl)c2)Nc2ccc(N3CCCC3)cc21 (stereo not drawn)
4. C[C@H]1CC[C@@]2(OC1)O[C@H]1C[C@H]3[C@@H]4CC[C@@H]5C[C@@H](OC6OC(CO)C(O)C(O)C6OC6OC(CO)C(O)C(O)C6O)CC[C@]5(C)[C@H]4CC[C@]3(C)[C@H]1[C@@H]2C (stereo partly drawn)

> 100 µM
> 100 µM
3.85 µM
4.26 µM

Hey, can you go through the list below and give me TGI for every item?
1. CC(=O)Nc1ccc(C2CC(c3ccc([N+](=O)[O-])cc3)=Nc3ccccc3S2=O)cc1 (stereo not drawn)
2. CC(=O)Oc1ccc(C2=Cc3ccc(OC(C)=O)cc3OC2C)cc1 (stereo not drawn)
3. CCCCCC/C=C\CCCCCCCCC(=O)c1cccc(OC)c1OC
4. CN1CCOC(C(NC(=O)c2ccccc2)c2ccccc2)C1=O (stereo not drawn)

1. 89.2 µM
2. > 100 µM
3. > 100 µM
4. > 100 µM

Origin of values: PubChem BioAssay (NCI)
